Test system: transient receptor potential cation channel C4 beta (TRPC4), mouse
Test: TRPC4 cation channel opening, second retest – cell-based, second round, Fluo4, HEK293 TRPC4beta/mu-opioid, 1 µM, confirmation (AID 2461)
Settings: Fluo4 calcium fluorescence, at 1 µM
The source made the active and inactive calls.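 Rule for the calls: active = primary screen active and over 50% activation in each of two duplicate runs; inactive = the rest.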
The categories you may choose from are Y (active), N (inactive)

>>> qualitative_label("NS(=O)(=O)c1ccc(Nc2nc(-c3ccc(O)cc3O)cs2)cc1")
"N"
>>> qualitative_label("O/N=C/c1ccccc1Oc1ccc(Cl)cc1")
"N"
>>> qualitative_label("O=C(CN1CCCN(S(=O)(=O)c2ccc(F)cc2)CC1)Nc1ccccc1Br")
"N"
>>> qualitative_label("O=C(COC(=O)c1c(Cl)cccc1Cl)Nc1ccccc1Br")
"N"
>>> qualitative_label("COc1ccc(CCn2c(N)c(C#N)c3nc4ccccc4nc32)cc1OC")
"N"

Query block: Returns: the outcome recorded for O=C(CN1CCCCC1)N1c2ccccc2Oc2ccccc21 in this assay.
Result block: N

Query block: Now try CN(C)CCCNc1nc(N)c([N+](=O)[O-])c(NCc2ccccc2)n1 .
Result block: N

Query block: Now try CC(=O)N1N=C(c2c(-c3ccccc3)c3cc(C)ccc3[nH]c2=O)CC1c1ccco1 (stereo unspecified) .
Result block: N

====

Target: Short transient receptor potential channel 4 (Mus musculus)
Assay: calcium flux activators in TRPC4/5HT1a cells, counter-screen for TRPC4 activator project, cell-based, second counter screen, HEK293 TRPC4/5HT1a, Fluo-4 (AID 434977)
Conditions: Fluo-4 calcium flux, at 10 µM
The source made the active and inactive calls.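 The calls were made as follows: active = calcium signal rise above buffer-control mean plus 5 SD in both duplicates, and also a hit in the primary screen; inactive = the rest.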
The categories you may choose from are active, inactive

>>> qualitative_label("O=C(C[n+]1cc(-c2ccc(Br)cc2)n2c1CCCCC2)c1ccccc1")
"inactive"
>>> qualitative_label("COc1c(C)cc(C(=O)C2CCCN(Cc3cccc4nccnc34)C2)cc1C (stereo not given)")
"active"
>>> qualitative_label("CN(Cc1ccco1)C(=O)Cn1ncc2c([nH]c3ccccc32)c1=O")
"inactive"
>>> qualitative_label("NC(=O)c1nsc(C(=O)N(Cc2ccco2)C(C(=O)NCC2CCCO2)c2ccc(F)cc2)c1N (stereo not given)")
"inactive"

Query block: Returns: the outcome recorded for CN(CC(=O)NC1CCCc2ccccc21)C1CCCCC1 (stereo not given) in this assay.
Result block: inactive

====

System: TRPC4 (transient receptor potential cation channel C4 beta), mouse
Experiment: potentiation of DAMGO EC20 TRPC4 response – cell-based, second round, Fluo-4, HEK293 TRPC4beta/mu-opioid, 1 µM, confirmation (AID 2554)
Details: DAMGO EC20, Fluo-4 calcium flux, at 1 µM; active compounds read high
Activity calls are given as the source filed them.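 How the source made its calls: active means primary screen hit whose fluorescence ratio, in both repeats, exceeds the weak agonist control mean by 3 SD; inactive means the rest.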
measured-endpoint: potentiation

>>> result("CCOC(=O)CC(NC(=O)c1cc2cc(Br)ccc2oc1=O)c1cccc([N+](=O)[O-])c1 (stereo not given)")
"inactive"
>>> result("c1ccn2cc(C34CC5CC(CC(C5)C3)C4)nc2c1")
"inactive"
>>> result("COC(=O)[C@@]12CCCCN1[C@H](c1ccc(-c3ccc(C(C)=O)cc3)cc1)[C@@H]1C(=O)N(C)C(=O)[C@@H]12")
"inactive"
>>> result("C=CCOc1ccc(Br)cc1/C=N/O")
"inactive"

Now examine the next entry.
Query block: Could you share which potentiation value was measured for O=C(O)CN1C(c2ccccc2O)Nc2ccc(Br)cc2C1c1ccccc1 (stereo not given) ?
Result block: inactive
